Parameter: inhibition. Scope: all listed entries.
# MEASURED TARGET: CDK2 (UniProt P24941)
# EXPERIMENT SUMMARY: Enzyme Assay
# EXPERIMENTAL CONDITIONS: concentration not given here
Dear colleague, please return just the value in %, with no unit written.

COMPOUND	inhibition (%)
Nc1nc(Nc2ccc(C(=O)N3CCN(CCCO)CC3)cc2)sc1C(=O)c1c(F)cccc1F	-14
COc1ccc(C(=O)NC(=O)c2ccc(Nc3nc(N)c(C(=O)c4c(F)cccc4F)s3)cc2)cc1N	15

Retrieve inhibition measured for CCOC(=O)/C=C/c1ccc(Nc2nc(N)c(C(=O)c3c(F)cccc3F)s2)cc1 and print it. -3

Retrieve inhibition measured for Nc1nc(Nc2ccc(C(=O)N3CCN(CCO)CC3)cc2)sc1C(=O)c1c(F)cccc1F and print it. -43

Retrieve inhibition measured for C=CCN(C(=O)c1ccc(Nc2nc(N)c(C(=O)c3c(F)cccc3F)s2)cc1)C1CCCCC1 and print it. -15

Retrieve inhibition measured for Nc1nc(Nc2ccc(C(=O)Nc3cccc(OC(F)(F)F)c3)cc2)sc1C(=O)c1c(F)cccc1F and print it. -31

Retrieve inhibition measured for Nc1nc(Nc2ccc(C(=O)NCC(O)CO)cc2)sc1C(=O)c1c(F)cccc1F (configuration not stated) and print it. -2

Retrieve inhibition measured for CC(C)(C)C1CCC(NC(=O)c2ccc(Nc3nc(N)c(C(=O)c4c(F)cccc4F)s3)cc2)CC1 (configuration not stated) and print it. -23

Retrieve inhibition measured for Nc1nc(Nc2ccc(C(=O)NCCCCCCO)cc2)sc1C(=O)c1c(F)cccc1F and print it. -5

Retrieve inhibition measured for CCN(C)C(=O)c1ccc(Nc2nc(N)c(C(=O)c3c(F)cccc3F)s2)cc1 and print it. -12

Retrieve inhibition measured for CN(C)CCCN1CCN(C(=O)c2ccc(Nc3nc(N)c(C(=O)c4c(F)cccc4F)s3)cc2)CC1 and print it. -14

Retrieve inhibition measured for CN(C)C(=O)CN(C)C(=O)c1ccc(Nc2nc(N)c(C(=O)c3c(F)cccc3F)s2)cc1 and print it. -23
